// Torulopsis glabrata MIC records
Give bare numbers, in µg/mL.

Solved entries (count: 4):
[[record]]
compound = "C=CC(C)(C)C(O)(COc1ccc(F)cc1)Cn1cncn1 (centres unmarked)"
measurementtype = "MIC"
unittext = "µg/mL"
readoutvalue = 8

[[record]]
compound = "Cc1cc(Cl)ccc1OCC(O)(Cn1cncn1)C(C)(C)CF (centres unmarked)"
measurementtype = "MIC"
unittext = "µg/mL"
readoutvalue = 2

[[record]]
compound = "Cc1ccccc1CCC(O)(Cn1ccnc1)C(C)(C)C (centres unmarked) [(D), reference compound]"
measurementtype = "MIC"
unittext = "µg/mL"
readoutvalue = 16

[[record]]
compound = "C=CC(C)(C)C(O)(COc1ccc(-c2ccccc2)cc1)Cn1cncn1 (centres unmarked)"
measurementtype = "MIC"
unittext = "µg/mL"
readoutvalue = 32


Qu. Item CC(C)(C)C(O)(COc1ccc(Cl)cc1)Cn1ccnc1 (centres unmarked) [(A), reference compound] : provide MIC
Ans. 2

###

// Torulopsis glabrata MIC records

List MIC for every entry below, keeping the order given.
1. Cc1ccccc1OCC(O)(Cn1ccnc1)C(C)(C)C (stereo not drawn) [(C), reference compound]
2. Cc1ccccc1OCC(O)(Cn1cncn1)C(C)(C)C (stereo not drawn) [(B), reference compound]
3. CC(C)(COc1ccc(Cl)cc1Cl)C(O)(CCc1ccc(Cl)cc1)Cn1ccnc1 (stereo not drawn)

Ans.
["> 64 mg/L", "> 64 mg/L", "< 1 mg/L"]
